# tested.on: HLA-A0203 (Homo sapiens, UniProt P04439, A173T/D140Y/D185E/D98H/E277Q/G131W/G231S/I119V/I121R/I166T/I218V/L180W/L300P/L318F/N151K/N90K/P208A/P217A/Q86G/Q94H/R138H/R169H/T345S)
# Construct: expressed in transfected cells; host or cells: HMy2.CIR
# measurement.protocol: cell-based
# Assay type: binding
Where no end group is shown, it is not given here.
readout.type: IC50

* ALFYKLDIV [Peptide P2] | 5 to 15 µM
* IIFAVLSIV [Peptide P5] | 5 to 15 µM

Read the next record carefully.
Task item: Given the sequence RLINCNTSV [Peptide P6] , what is its reported IC50?
Reply: 5 to 15 µM

* * *

# tested.on: HLA-A3001 (Homo sapiens, UniProt P04439, D140H/D185E/E176W/F33S/G80R/H175R/K168Q/R138E/R41S)
# Construct: expressed in transfected cells; host or cells: HMy2.CIR
# measurement.protocol: cell-based
# Format: binding
# conditions.used: A3001; peptide 5 μM vs FITC-labeled reference peptide 300 nM, 24 h, 4°C, flow cytometry
Let's look at some sequences and their measured 5-μM inhibition (%).
All answers are understood in %, so give the number only.

Task item: Fill in the blank: the reported 5-μM inhibition (%) of RLRPGGRKK [Peptide P89] is ____.
Reply: 27.40

Task item: What does the data say about its 5-μM inhibition (%)? Entry: KVVPRRKAK [Peptide P93]
Reply: 16.92

Task item: 5-μM inhibition (%) for RLRGFILVA [Peptide P92] ?
Reply: 18.53

Task item: What does the record list as 5-μM inhibition (%) for KVYLSWVPA [Peptide P94] ?
Reply: 27.40

* * *

# tested.on: HLA-A0206 (Homo sapiens, UniProt P04439, D140Y/D185E/D98H/E176V/E277Q/F33Y/G131W/G231S/I119V/I121R/I166T/I218V/L300P/L318F/N151K/N90K/P208A/P217A/Q86G/Q94H/R138H/R169H/T345S)
# Construct: expressed in transfected cells; host or cells: HMy2.CIR
# measurement.protocol: Peptide competitive binding assay, HMy2.CIR cells expressing A0206
# conditions.used: class from inhibition at 5 and 15 μM of FITC-labeled reference peptide binding, read-out: Affinity
Where no end group is shown, it is not given here.
readout.type: IC50

Task item: Entry WIILGLNKI [Peptide P72] : reported IC50 = ?
Reply: 5 to 15 µM

* * *

# tested.on: HLA-A0301 (Homo sapiens, UniProt P04439)
# Construct: expressed in transfected cells; host or cells: HMy2.CIR
# measurement.protocol: cell-based
# Assay type: binding
pIC50: −log10 of the molar value. Where no end group is shown, it is not given here.
This section presents sequences with their documented pIC50 values.

• KLAGRWPVK [Peptide P95] = 4.82 to 5.30

Let's switch to this sequence now.
Task item: Which pIC50 is listed for LLYWGQELK [Peptide P84] ?
Reply: 4.82 to 5.30

* * *

# tested.on: HLA-A0201 (Homo sapiens, UniProt P04439, D140Y/D185E/D98H/E176V/E277Q/G131W/G231S/I119V/I121R/I166T/I218V/L300P/L318F/N151K/N90K/P208A/P217A/Q86G/Q94H/R138H/R169H/T345S)
# Construct: expressed in transfected cells; host or cells: HMy2.CIR
# measurement.protocol: cell-based
# Type: binding
# conditions.used: A0201; peptide 5 μM vs FITC-labeled reference peptide 300 nM, 24 h, 4°C, flow cytometry
Give 1.0 when the value for 5-μM inhibition (%) is at least 10%. Give 0.0 when it is less.

Some entries whose results are on file:
• ALQTGTEEL [Peptide P8] = 0.0
• YQLEKDPIV [Peptide P11] = 0.0
• YMLKHLVWA [Peptide P7] = 0.0
• SLFNTVATL [Peptide P10] = 1.0
• KTIIVHLNK [Peptide P19] = 0.0
• QMQEDVISL [Peptide P4] = 1.0

Now look at this one.
Task item: For this sequence, is measured 5-μM inhibition (%) 10% or higher? ALQDSGSEV [Peptide P18]
Reply: 1.0
